# Test system: HGGX39 (paediatric high-grade glioma line)
# experimentalDetails: growth inhibition (% activity, log2 RLU normalised to DMSO / staurosporine); higher = more growth inhibition
# experimentalContext: 33 µM

[
  {
    "compound": "COC(c1ccccc1)(c1ccccc1)[C@H](Oc1nc(C)cc(C)n1)C(=O)O",
    "growth inhibition": "2.43%"
  },
  {
    "compound": "Cn1c(=O)c2c(ncn2CC(O)CO)n(C)c1=O (stereo unspecified)",
    "growth inhibition": "2.44%"
  },
  {
    "compound": "COc1cc2nc(N3CCN(C(=O)C4COc5ccccc5O4)CC3)nc(N)c2cc1OC (stereo unspecified)",
    "growth inhibition": "2.47%"
  },
  {
    "compound": "NC[C@H]1O[C@H](O[C@H]2[C@H](O)[C@@H](O[C@H]3O[C@H](CO)[C@@H](O)[C@H](N)[C@H]3O)[C@H](N)C[C@@H]2N)[C@H](N)C[C@@H]1O",
    "growth inhibition": "-1.03%"
  },
  {
    "compound": "COCCCOc1cc(C[C@@H](C[C@H](N)[C@@H](O)C[C@H](C(=O)NCC(C)(C)C(N)=O)C(C)C)C(C)C)ccc1OC",
    "growth inhibition": "3.87%"
  },
  {
    "compound": "N=C(N)NC(=N)NCCc1ccccc1",
    "growth inhibition": "3.43%"
  },
  {
    "compound": "CN1CCC(=C2c3ccccc3CCc3cccnc32)CC1",
    "growth inhibition": "-1.55%"
  },
  {
    "compound": "O=c1[nH]c(=O)n([C@H]2C[C@H](O)[C@@H](CO)O2)cc1F",
    "growth inhibition": "10.9%"
  },
  {
    "compound": "COc1cc(C(=O)NS(=O)(=O)c2ccccc2C)ccc1Cc1cn(C)c2ccc(NC(=O)OC3CCCC3)cc12",
    "growth inhibition": "1.49%"
  },
  {
    "compound": "CCCC1O[C@@H]2C[C@H]3[C@@H]4CCC5=CC(=O)C=C[C@]5(C)[C@H]4[C@@H](O)C[C@]3(C)[C@]2(C(=O)CO)O1 (stereo partly specified)",
    "growth inhibition": "3.05%"
  },
  {
    "compound": "O=C1C(=O)c2ccccc2C(O)=C1C1CCC(c2ccc(Cl)cc2)CC1 (stereo unspecified)",
    "growth inhibition": "1.71%"
  },
  {
    "compound": "NC12CC3CC(CC(C3)C1)C2",
    "growth inhibition": "2.31%"
  },
  {
    "compound": "Nc1nc(O)c2ncn(CCC(CO)CO)c2n1",
    "growth inhibition": "0.105%"
  },
  {
    "compound": "CC(C)(C(=O)O)c1ccc(C(O)CCCN2CCC(C(O)(c3ccccc3)c3ccccc3)CC2)cc1 (stereo unspecified)",
    "growth inhibition": "2.4%"
  },
  {
    "compound": "COc1c(N2CCNC(C)C2)c(F)cc2c(=O)c(C(=O)O)cn(C3CC3)c12 (stereo unspecified)",
    "growth inhibition": "4.77%"
  },
  {
    "compound": "NC(=O)c1cnccn1",
    "growth inhibition": "-2.81%"
  },
  {
    "compound": "CC(C)(Oc1ccc(CCNC(=O)c2ccc(Cl)cc2)cc1)C(=O)O",
    "growth inhibition": "1.23%"
  },
  {
    "compound": "CNNCc1ccc(C(=O)NC(C)C)cc1",
    "growth inhibition": "3.29%"
  },
  {
    "compound": "CN(C/C=C/c1ccccc1)Cc1cccc2ccccc12",
    "growth inhibition": "1.84%"
  },
  {
    "compound": "CCCCCCCCOc1ccccc1C(=O)Nc1ccc(C(=O)OCC[N+](C)(CC)CC)cc1",
    "growth inhibition": "53.7%"
  },
  {
    "compound": "Cc1cc(NS(=O)(=O)c2ccc(N)cc2)no1",
    "growth inhibition": "-2.37%"
  }
]

* * *

Listing: growth inhibition of selected molecules
# Test system: DIPGX9 (diffuse intrinsic pontine glioma line)
# experimentalDetails: growth inhibition (% activity, log2 RLU normalised to DMSO / staurosporine); higher = more growth inhibition
# experimentalContext: 33 µM
measuredMetric: growth inhibition (%)

[
  {
    "molecule": "OC(CCN1CCCC1)(c1ccccc1)C1CCCCC1 (stereo not given)",
    "testSystem": "DIPGX9",
    "measuredMetric": "growth inhibition",
    "reportedValue": -1.38
  },
  {
    "molecule": "COC(=O)CCc1ccc(OCC(O)CNC(C)C)cc1 (stereo not given)",
    "testSystem": "DIPGX9",
    "measuredMetric": "growth inhibition",
    "reportedValue": 0.526
  },
  {
    "molecule": "C[C@@H]1CC(=O)NN=C1c1ccc(NN=C(C#N)C#N)cc1",
    "testSystem": "DIPGX9",
    "measuredMetric": "growth inhibition",
    "reportedValue": 4.28
  },
  {
    "molecule": "COC(=O)C1=CO[C@@H](O)[C@@H]2C(CO)=CC[C@H]12",
    "testSystem": "DIPGX9",
    "measuredMetric": "growth inhibition",
    "reportedValue": 2.66
  },
  {
    "molecule": "CCOC(=O)C1=C(C)NC(C)=C(C(=O)OC)C1c1cccc(Cl)c1Cl (stereo not given)",
    "testSystem": "DIPGX9",
    "measuredMetric": "growth inhibition",
    "reportedValue": 2.94
  },
  {
    "molecule": "CN(C)C/C=C/C(=O)Nc1cc2c(Nc3ccc(F)c(Cl)c3)ncnc2cc1O[C@H]1CCOC1",
    "testSystem": "DIPGX9",
    "measuredMetric": "growth inhibition",
    "reportedValue": 14.3
  },
  {
    "molecule": "CCCc1ncc(C[n+]2ccccc2C)c(N)n1",
    "testSystem": "DIPGX9",
    "measuredMetric": "growth inhibition",
    "reportedValue": -2.23
  },
  {
    "molecule": "CC[C@@H]1C(=O)OC[C@@H]1Cc1cncn1C",
    "testSystem": "DIPGX9",
    "measuredMetric": "growth inhibition",
    "reportedValue": -1.88
  },
  {
    "molecule": "CNC(=O)c1ccc(N2C(=S)N(c3ccc(C#N)c(C(F)(F)F)c3)C(=O)C2(C)C)cc1F",
    "testSystem": "DIPGX9",
    "measuredMetric": "growth inhibition",
    "reportedValue": 1.43
  },
  {
    "molecule": "CO[C@@H]1[C@@H](OC(N)=O)[C@@H](O)[C@H](Oc2ccc3c(O)c(NC(=O)c4ccc(O)c(CC=C(C)C)c4)c(=O)oc3c2C)OC1(C)C",
    "testSystem": "DIPGX9",
    "measuredMetric": "growth inhibition",
    "reportedValue": 0.55
  },
  {
    "molecule": "CCN1CCN(C(=O)N[C@@H](C(=O)N[C@@H]2C(=O)N3[C@@H]2SC(C)(C)[C@@H]3C(=O)O)c2ccccc2)C(=O)C1=O",
    "testSystem": "DIPGX9",
    "measuredMetric": "growth inhibition",
    "reportedValue": -1.09
  },
  {
    "molecule": "CC(C)c1c(C(=O)Nc2ccccc2)c(-c2ccccc2)c(-c2ccc(F)cc2)n1CC[C@@H](O)C[C@@H](O)CC(=O)O",
    "testSystem": "DIPGX9",
    "measuredMetric": "growth inhibition",
    "reportedValue": 7.54
  },
  {
    "molecule": "CC1=C(CC(=O)O)c2cc(F)ccc2/C1=C\\c1ccc([S+](C)[O-])cc1 (stereo not given)",
    "testSystem": "DIPGX9",
    "measuredMetric": "growth inhibition",
    "reportedValue": 0.866
  },
  {
    "molecule": "CO/N=C(\\C(=O)N[C@@H]1C(=O)N2C(C(=O)O)=C(CSC(=O)c3ccco3)CS[C@H]12)c1csc(N)n1",
    "testSystem": "DIPGX9",
    "measuredMetric": "growth inhibition",
    "reportedValue": -0.83
  },
  {
    "molecule": "COc1ccc(-c2nc3ccc(C4=NNC(=O)CC4C)cc3[nH]2)cc1 (stereo not given)",
    "testSystem": "DIPGX9",
    "measuredMetric": "growth inhibition",
    "reportedValue": 1.28
  },
  {
    "molecule": "CCOC(=O)N1CCC(=C2c3ccc(Cl)cc3CCc3cccnc32)CC1",
    "testSystem": "DIPGX9",
    "measuredMetric": "growth inhibition",
    "reportedValue": 1.03
  },
  {
    "molecule": "COC(=O)C1=C(C#N)NC(C)=C(C(=O)OC(C)C)C1c1cccc([N+](=O)[O-])c1 (stereo not given)",
    "testSystem": "DIPGX9",
    "measuredMetric": "growth inhibition",
    "reportedValue": -1.03
  },
  {
    "molecule": "CN(C)CCC(c1ccc(Br)cc1)c1ccccn1 (stereo not given)",
    "testSystem": "DIPGX9",
    "measuredMetric": "growth inhibition",
    "reportedValue": 0.118
  },
  {
    "molecule": "CN(C)CCCN1c2ccccc2CCc2ccccc21",
    "testSystem": "DIPGX9",
    "measuredMetric": "growth inhibition",
    "reportedValue": 1.54
  },
  {
    "molecule": "CC(C)CN(C[C@@H](O)[C@H](Cc1ccccc1)NC(=O)O[C@H]1CCOC1)S(=O)(=O)c1ccc(N)cc1",
    "testSystem": "DIPGX9",
    "measuredMetric": "growth inhibition",
    "reportedValue": -0.297
  }
]

Sourced from the supplement of paper PMC8253809
